target: E340G mutant bovine olfactory CNG channel (Bos taurus, UniProt Q03041, E340G); format: biochemical; settings: read-out: K 1/2, cGMP, +80 mV
Sequence (Q03041 whole entry E340G): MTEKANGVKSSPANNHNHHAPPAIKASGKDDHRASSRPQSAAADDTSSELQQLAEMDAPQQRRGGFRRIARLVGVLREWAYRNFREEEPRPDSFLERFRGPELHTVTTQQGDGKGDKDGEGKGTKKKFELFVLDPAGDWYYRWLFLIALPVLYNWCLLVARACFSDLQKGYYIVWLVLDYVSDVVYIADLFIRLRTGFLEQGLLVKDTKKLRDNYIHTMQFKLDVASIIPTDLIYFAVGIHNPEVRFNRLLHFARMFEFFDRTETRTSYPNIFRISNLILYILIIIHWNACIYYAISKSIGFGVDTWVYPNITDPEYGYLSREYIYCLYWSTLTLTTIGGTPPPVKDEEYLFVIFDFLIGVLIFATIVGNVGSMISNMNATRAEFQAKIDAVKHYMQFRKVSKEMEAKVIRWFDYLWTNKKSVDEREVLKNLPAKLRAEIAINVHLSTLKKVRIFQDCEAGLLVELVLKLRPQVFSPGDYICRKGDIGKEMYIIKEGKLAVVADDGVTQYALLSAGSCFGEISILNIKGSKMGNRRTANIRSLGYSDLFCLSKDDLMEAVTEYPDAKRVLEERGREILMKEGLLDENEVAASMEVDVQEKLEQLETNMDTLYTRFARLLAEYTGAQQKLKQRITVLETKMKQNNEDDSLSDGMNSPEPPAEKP
endpoint: EC50
Please answer in the form of a number followed by its unit of measurement.

Param item: Nc1nc2c(ncn2[C@@H]2O[C@@H]3COP(=O)(O)O[C@H]3[C@H]2O)c(=O)[nH]1 ; param system: E340G mutant bovine olfactory CNG channel (Bos taurus, UniProt Q03041, E340G); output EC50: 13 µM

* * *

target: E340N mutant bovine olfactory CNG channel (Bos taurus, UniProt Q03041, E340N); experiment: Blockage of macroscopic current by external Ca2+ or Mg2+, outside-out patches; type: biochemical; conditions: external Mg2+, −80 mV, mean ± SD
Sequence (Q03041 whole entry E340N): as the sequence (Q03041 whole entry E340G) above, with G340N counted along it
endpoint: Ki (mM)
API: value field is a number in mM; no unit string.

The recorded Ki for entry [Mg+2] [Mg^2+] equals 17
